Recorded growth at 10 µM values for a group of molecules are listed next.
tested on: Malme-3M; experiment: Growth inhibition of human MALME-3M cells assessed as cell growth at 10 uM after 48 hrs by sulforhodamine B assay; format: functional; details: read-out: Activity
Record the result as number plus unit.

Worked examples, 3 molecules total:
item_smiles | growth at 10 µM
CCOc1ccc(-n2nc(C(=O)NCc3cccc(OC)c3)nc2-c2cc(OC)c(OC)c(OC)c2)cc1 | 97.7%
COc1cccc(-n2nc(C(=O)NCc3ccccc3OC)nc2-c2cc(OC)c(OC)c(OC)c2)c1 | 99.7%
COc1cccc(-n2nc(C(=O)NCc3ccccc3C)nc2-c2cc(OC)c(OC)c(OC)c2)c1 | 94.7%

Prompt line: Request: growth at 10 µM, test system Malme-3M, entry `CCOc1ccc(-n2nc(C(=O)Nc3ccc(OC)c(O)c3)nc2-c2cc(OC)c(OC)c(OC)c2)cc1`
Response line: 114%

Prompt line: Request: growth at 10 µM, test system Malme-3M, entry `CCOc1ccc(-n2nc(C(=O)Nc3cc(OC)c(OC)c(OC)c3)nc2-c2cc(OC)c(OC)c(OC)c2)cc1`
Response line: 85.2%

Prompt line: Request: growth at 10 µM, test system Malme-3M, entry `CCOc1ccc(-n2nc(C(=O)Nc3cc(F)cc(F)c3)nc2-c2cc(OC)c(OC)c(OC)c2)cc1`
Response line: 97.5%

Prompt line: Request: growth at 10 µM, test system Malme-3M, entry `CCOc1ccc(-n2nc(C(=O)Nc3ccc(F)c(F)c3F)nc2-c2cc(OC)c(OC)c(OC)c2)cc1`
Response line: 86.9%

Prompt line: Request: growth at 10 µM, test system Malme-3M, entry `COc1cccc(-n2nc(C(=O)Nc3ccccc3)nc2-c2cc(OC)c(OC)c(OC)c2)c1`
Response line: 95.9%

###

test system: CAKI-1; test: Growth inhibition of human CAKI-1 cells assessed as cell growth at 10 uM after 48 hrs by sulforhodamine B assay; format: functional; conditions: CAKI-1, 48 h, read-out: Activity
Response key: satisfied means growth at 10 µM >= 70%; not satisfied means growth at 10 µM < 70%.

// below: answered compounds
item_smiles | label
CCOc1ccc(-n2nc(C(=O)Nc3ccc(F)c(F)c3F)nc2-c2cc(OC)c(OC)c(OC)c2)cc1 | not satisfied
CCOc1ccc(-n2nc(C(=O)Nc3ccc(OC)c(O)c3)nc2-c2cc(OC)c(OC)c(OC)c2)cc1 | satisfied
CCOc1ccc(-n2nc(C(=O)Nc3cccc(OC)c3)nc2-c2cc(OC)c(OC)c(OC)c2)cc1 | satisfied
CCOc1ccc(-n2nc(C(=O)NCc3cc(F)cc(F)c3)nc2-c2cc(OC)c(OC)c(OC)c2)cc1 | not satisfied
CCOc1ccc(-n2nc(C(=O)Nc3ccccc3)nc2-c2cc(OC)c(OC)c(OC)c2)cc1 | not satisfied

Turning now to a further record.
Prompt line: Is reported growth at 10 µM greater than or equal to 70% here: `CCOc1ccc(-n2nc(C(=O)Nc3ccccc3OC)nc2-c2cc(OC)c(OC)c(OC)c2)cc1`
Response line: not satisfied

###

tested on: 786-0; experiment: Growth inhibition of human 786-0 cells assessed as cell growth at 10 uM after 48 hrs by sulforhodamine B assay; format: functional; settings: 786-0, 48 h, read-out: Activity
measured_metric: growth at 10 µM (%)
Lab book: enter the figure in %, no units written.

Worked examples, 4 compounds total:
item_smiles | display_unit | measurement
COc1cccc(-n2nc(C(=O)Nc3ccccc3)nc2-c2cc(OC)c(OC)c(OC)c2)c1 | % | 79.4
CCOc1ccc(-n2nc(C(=O)Nc3cc(F)cc(F)c3)nc2-c2cc(OC)c(OC)c(OC)c2)cc1 | % | 82.1
COc1cccc(-n2nc(C(=O)NCc3ccccc3C)nc2-c2cc(OC)c(OC)c(OC)c2)c1 | % | 76
CCOc1ccc(-n2nc(C(=O)Nc3ccc(F)c(F)c3)nc2-c2cc(OC)c(OC)c(OC)c2)cc1 | % | 85

Prompt line: # growth at 10 µM lookup, item `CCOc1ccc(-n2nc(C(=O)NCc3cc(F)cc(F)c3)nc2-c2cc(OC)c(OC)c(OC)c2)cc1`
Response line: 65.9

Prompt line: # growth at 10 µM lookup, item `CCOc1ccc(-n2nc(C(=O)NCc3ccccc3OC)nc2-c2cc(OC)c(OC)c(OC)c2)cc1`
Response line: 41.5

Prompt line: # growth at 10 µM lookup, item `CCOc1ccc(-n2nc(C(=O)Nc3ccc(F)c(F)c3F)nc2-c2cc(OC)c(OC)c(OC)c2)cc1`
Response line: 79.6

Prompt line: # growth at 10 µM lookup, item `CCOc1ccc(-n2nc(C(=O)Nc3cccc(OC)c3)nc2-c2cc(OC)c(OC)c(OC)c2)cc1`
Response line: 84.8

Prompt line: # growth at 10 µM lookup, item `CCOc1ccc(-n2nc(C(=O)Nc3ccccc3)nc2-c2cc(OC)c(OC)c(OC)c2)cc1`
Response line: 69.4

Prompt line: # growth at 10 µM lookup, item `CCOc1ccc(-n2nc(C(=O)NCc3cccc(OC)c3)nc2-c2cc(OC)c(OC)c(OC)c2)cc1`
Response line: 90.2

###

test system: SF-295; experiment: Growth inhibition of human SF295 cells assessed as cell growth at 10 uM after 48 hrs by sulforhodamine B assay; assay type: functional; settings: SF-295, 48 h, read-out: Activity
Recorded growth at 10 µM values for a group of molecules are listed next.

Prompt line: # growth at 10 µM lookup, item `CCOc1ccc(-n2nc(C(=O)Nc3ccc(F)c(F)c3F)nc2-c2cc(OC)c(OC)c(OC)c2)cc1`
Response line: 93%

Prompt line: # growth at 10 µM lookup, item `CCOc1ccc(-n2nc(C(=O)Nc3ccc(OC)c(O)c3)nc2-c2cc(OC)c(OC)c(OC)c2)cc1`
Response line: 108%

Prompt line: # growth at 10 µM lookup, item `CCOc1ccc(-n2nc(C(=O)Nc3cc(OC)c(OC)c(OC)c3)nc2-c2cc(OC)c(OC)c(OC)c2)cc1`
Response line: 95.9%

###

tested on: SK-OV-3; experiment: Growth inhibition of human SKOV3 cells assessed as cell growth at 10 uM after 48 hrs by sulforhodamine B assay; type: functional; conditions: SK-OV-3, 48 h, read-out: Activity
measured_metric: growth at 10 µM (%)
Lab book: enter the figure in %, no units written.

Worked examples, 8 molecules total:
item_smiles | target_of_assay | growth at 10 µM (%)
CCOc1ccc(-n2nc(C(=O)NCc3cccc(OC)c3)nc2-c2cc(OC)c(OC)c(OC)c2)cc1 | SK-OV-3 | 85.8
CCOc1ccc(-n2nc(C(=O)Nc3ccc(OC)c(O)c3)nc2-c2cc(OC)c(OC)c(OC)c2)cc1 | SK-OV-3 | 112
CCOc1ccc(-n2nc(C(=O)Nc3cc(OC)c(OC)c(OC)c3)nc2-c2cc(OC)c(OC)c(OC)c2)cc1 | SK-OV-3 | 99.7
CCOc1ccc(-n2nc(C(=O)NCc3cc(F)cc(F)c3)nc2-c2cc(OC)c(OC)c(OC)c2)cc1 | SK-OV-3 | 76
CCOc1ccc(-n2nc(C(=O)NCc3ccccc3OC)nc2-c2cc(OC)c(OC)c(OC)c2)cc1 | SK-OV-3 | 67.1
CCOc1ccc(-n2nc(C(=O)Nc3ccc(F)c(F)c3)nc2-c2cc(OC)c(OC)c(OC)c2)cc1 | SK-OV-3 | 85.2
CCOc1ccc(-n2nc(C(=O)Nc3cc(F)cc(F)c3)nc2-c2cc(OC)c(OC)c(OC)c2)cc1 | SK-OV-3 | 93
CCOc1ccc(-n2nc(C(=O)Nc3ccc(F)c(F)c3F)nc2-c2cc(OC)c(OC)c(OC)c2)cc1 | SK-OV-3 | 85

Then there is this molecule:
Prompt line: # growth at 10 µM lookup, item `CCOc1ccc(-n2nc(C(=O)Nc3ccccc3)nc2-c2cc(OC)c(OC)c(OC)c2)cc1`
Response line: 51

###

system: NCI-H226; assay: Growth inhibition of human NCI-H226 cells assessed as cell growth at 10 uM after 48 hrs by sulforhodamine B assay; type: functional; settings: NCI-H226, 48 h, read-out: Activity
measured_metric: growth at 10 µM (%)
Lab book: enter the figure in %, no units written.

Worked examples, 2 compounds total:
item_smiles | display_unit | growth at 10 µM
CCOc1ccc(-n2nc(C(=O)Nc3ccc(F)c(F)c3F)nc2-c2cc(OC)c(OC)c(OC)c2)cc1 | % | 91.2
COc1cccc(-n2nc(C(=O)Nc3ccccc3)nc2-c2cc(OC)c(OC)c(OC)c2)c1 | % | 96.9

Then there is this compound:
Prompt line: # growth at 10 µM lookup, item `CCOc1ccc(-n2nc(C(=O)Nc3ccccc3OC)nc2-c2cc(OC)c(OC)c(OC)c2)cc1`
Response line: 82.3

###

tested on: NCI-H23; test: Growth inhibition of human NCI-H23 cells assessed as cell growth at 10 uM after 48 hrs by sulforhodamine B assay; type: functional; details: NCI-H23, 48 h, read-out: Activity
measured_metric: growth at 10 µM (%)
Lab book: enter the figure in %, no units written.

item_smiles | growth at 10 µM / %
CCOc1ccc(-n2nc(C(=O)Nc3cc(F)cc(F)c3)nc2-c2cc(OC)c(OC)c(OC)c2)cc1 | 84

Prompt line: Request: growth at 10 µM, test system NCI-H23, entry `CCOc1ccc(-n2nc(C(=O)Nc3cc(OC)c(OC)c(OC)c3)nc2-c2cc(OC)c(OC)c(OC)c2)cc1`
Response line: 85

Prompt line: Request: growth at 10 µM, test system NCI-H23, entry `CCOc1ccc(-n2nc(C(=O)Nc3ccccc3)nc2-c2cc(OC)c(OC)c(OC)c2)cc1`
Response line: 66.6

Prompt line: Request: growth at 10 µM, test system NCI-H23, entry `COc1cccc(-n2nc(C(=O)Nc3ccccc3)nc2-c2cc(OC)c(OC)c(OC)c2)c1`
Response line: 111
